- assay target: T1, PSMA Fab (006 PSMA Fab) (biotinylated (site not stated))
- T1 construct: Captured as biotinylated PSMA Fab on neutravidin coated plates in the phage ELISA; also called Anti-PSMA Fab; anti-PSMA Fab
- assay comment: phage ELISA: clonal phage on biotinylated PSMA Fab captured on neutravidin plate, wells pre-incubated with PSMA antigen as competitor, anti-M13 HRP detection
readout: Phage binding ELISA signal, Anti-PSMA Fab in presence of PSMA

{"columns": ["binder", "observed"],
 "data": [
  ["IERMCMPPWMCSAL [Phage-3716]", 0.0662],
  ["GENWCVPQWMCDGF [Phage-3721]", 0.139],
  ["SEALCVPKWMCHGF [Phage-3719]", 0.0994],
  ["DVLMCTPRWMCDGF [Phage-3725]", 0.0822],
  ["TLFACVPAWMCDGF [Phage-3726]", 0.0757],
  ["MEWHCKPKWMCEGF [Phage-3717]", 0.0772],
  ["ESPICKPSWMCSGL [Phage-3718]", 0.0616],
  ["AYMKCSPAWMCEGF [Phage-3722]", 0.0811]
]}
